biological target: Mitogen-activated protein kinase 10 (Mus musculus) (UniProt Q61831); test: JNK3 AlphaScreen Assay (AID 530); settings: JNK3 lysate, c-Jun phosphorylation; series mostly up to 25.6 µM;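 also: kinase came from lysate of stimulated human HepG2 cells; signal reports phosphorylation of biotinylated GST-cJun 1-79 at Ser73 with 10 µM ATP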
Results filed as inconclusive are left out. The source made the active and inactive calls. Calls follow the shape of the dose curve; as a rule, active = well fitted curve in either direction with a large enough effect (not every such curve was filed as active); inconclusive = small, poorly fitted or top-dose-only effect, or another doubt; inactive = flat fitted curve, though single readings scatter.
reported-property: outcome

Known outcome results, listed for orientation:
INSERT INTO measurements (structure_smiles, meas_value) VALUES
  ('CNCCC=C1c2ccccc2C=Cc2ccccc21', 'inactive'),
  ('CCC(=O)[C@@]1(C)[C@H](C)C[C@@H]2[C@@H]3CCC4=CC(=O)C=C[C@@]4(C)[C@H]3[C@H](O)C[C@]21C', 'inactive'),
  ('CN(C)CCOC(=O)[C@@H](c1ccccc1)C1(O)CCCC1', 'inactive'),
  ('O=C1CN(/N=C\c2ccc([N+](=O)[O-])o2)C(=O)N1', 'inactive'),
  ('CC[C@H](C)C(=O)O[C@@H]1C[C@H](C)C=C2C=C[C@H](C)[C@@H](CC[C@H]3C[C@@H](O)CC(=O)O3)[C@H]21', 'inactive'),
  ('C[C@@H](C(=O)O)c1ccc(C(=O)c2ccccc2)s1', 'inactive'),
  ('Cc1cccc(C)c1NC(=O)[C@H](C)N', 'inactive'),
  ('COc1ccc2c(c1)N(C[C@@H](C)CN(C)C)c1ccccc1S2', 'inactive');

Form field: reported outcome of "COc1ccc(OC)c([C@H](O)CNC(=O)CN)c1"
inactive

Quick one: "CC(C)(C)NC[C@H](O)COc1cccc2c1CCC(=O)N2"
inactive

* * *

tested on: P94_40; assay: qHTS profiling for inhibitors of Plasmodium falciparum proliferation (AID 504749); also: nearly all actives have a fitted effect of over 60% in size; details: P. falciparum in erythrocytes, SYBR Green DNA, 72 h; series mostly up to 12.8 µM
Results filed as inconclusive are left out. Active and inactive are the calls of the source. Calls come from the whole dose curve; as a rule, active = well fitted inhibition curve with a large enough effect; inconclusive = small, poorly fitted or top-dose-only effect; inactive = flat fitted curve, though single readings scatter.
I would appreciate it if you answered using one of these outcomes: active, inactive

What outcome does the record of this test show for CC[C@@]12CCCN3CCc4c(n(c5ccccc45)[C@](O)(C(=O)OC)C1)C32 (some centres undefined) ?
inactive

Note, next up: "Cn1nnnc1SCC1=C(C(=O)O)N2C(=O)[C@@H](NC(=O)[C@@H](O)c3ccccc3)[C@@H]2SC1"
inactive

Again, but for "COc1cc2nc(N3CCN(C(=O)[C@@H]4CCCO4)CC3)nc(N)c2cc1OC"
inactive

Here is the next compound: "CO[C@H]1[C@@H](OC(N)=O)[C@H](O)[C@@H](Oc2ccc3c(O)c(NC(=O)c4ccc(O)c(CC=C(C)C)c4)c(=O)oc3c2C)OC1(C)C"
inactive

"CC(C)NC[C@H]1CCc2cc(CO)c([N+](=O)[O-])cc2N1" ?
inactive

C[C@]12CCC(=O)C=C1CCC1C2C(=O)C[C@]2(C)C1CC[C@]2(O)C(=O)CO (some centres undefined) , same question.
inactive

Entry to check: "CCCCCCCCCc1ccc(OCCOCCOCCOCCOCCOCCOCCOCCOCCO)cc1"
inactive

Again, but for "NS(=O)(=O)c1cc2c(cc1C(F)(F)F)N[C@H](Cc1ccccc1)NS2(=O)=O"
inactive

Now give it for "C[C@H]1CS(=O)(=O)CCN1/N=C\c1ccc([N+](=O)[O-])o1" too.
inactive

Queued: "Cc1onc(-c2ccccc2Cl)c1C(=O)N[C@H]1C(=O)N2[C@H]1SC(C)(C)[C@H]2C(=O)O"
inactive

// same read-out, input: C[C@@]12CCC(=O)C=C1C=CC1C2CC[C@]2(C)C1CC[C@@]21CCC(=O)O1 (some centres undefined)
inactive

Continue with COc1cc(C2c3cc4c(cc3C(O[C@@H]3OC5COC(c6cccs6)OC5C(O)C3O)C3COC(=O)C23)OCO4)cc(OC)c1O (some centres undefined)
active

Here is the next compound: "CCOC(=O)O[C@@H](C)OC(=O)[C@@H]1N2C(=O)[C@@H](NC(=O)[C@@H](N)c3ccccc3)[C@H]2SC1(C)C"
inactive

For NC(CCC(=O)N[C@@H](CS)C(=O)NCC(=O)O)C(=O)O (some centres undefined) then?
active

Try "CN(C/C=C\c1ccccc1)Cc1cccc2ccccc12" next.
inactive

Follow-up item: CC1C2CCC3C4CC=C5CC(N(C)C)CC[C@@]5(C)C4CC[C@@]32CN1C (some centres undefined)
inactive

Then this compound: COc1ccc2cc(C(C)CO)ccc2c1 (centres undefined)
inactive

Continue with "CN1C(=O)C[C@H](c2ccccc2)C1=O"
inactive

Also "CC[C@H]1NC(=O)c2cc(S(N)(=O)=O)c(Cl)cc2N1" ?
inactive

Also CC(=O)OC1CCC2C3CCc4cc(O)ccc4C3CCC12C (centres undefined) ?
inactive

// next record "CC(=O)N[C@H](CC(C)C)C(=O)O"
inactive

Moving on to "COc1c(O[C@H]2O[C@@H](CO)[C@@H](O)[C@@H](O)[C@@H]2O)cc2c(c1OC)-c1ccc(SC)c(=O)cc1[C@H](NC(C)=O)CC2"
inactive

Also "CC[N+](CC)(CC)CC[C@](O)(c1ccccc1)C1CCCCC1" , if possible.
inactive

Next compound: "COc1ccc([C@@H]2CC(=O)c3c(O)cc(O[C@H]4O[C@@H](CO[C@H]5O[C@@H](C)[C@@H](O)[C@@H](O)[C@@H]5O)[C@@H](O)[C@@H](O)[C@@H]4O)cc3O2)cc1O"
inactive

How about CN(C)CCc1c[nH]c2ccc(CC3COC(=O)N3)cc12 (centres undefined) ?
inactive

Now this one: "COc1ccc(C[C@@](C)(N)C(=O)O)cc1OC"
inactive

Here is the next compound: CNC1CC(N)[C@H](O)[C@@H](O[C@@H]2OC(CO)C3OC4(OC(C(N)CO)C(O)C(O)C4O)O[C@@H]3[C@H]2O)C1O (some centres undefined)
inactive

Then what about the compound "COc1cc(N[C@@H](C)CCCN)c2ncccc2c1" ?
active

And for O=C1OC(CO)C(O)C(O)C1O (centres undefined) ?
inactive

Please answer likewise for "O=C(O)COCCN1CCN([C@@H](c2ccccc2)c2ccc(Cl)cc2)CC1"
inactive

Could you do the same for "NS(=O)(=O)c1cc2c(cc1Cl)N[C@@H](CC1CCCC1)NS2(=O)=O" , please?
inactive

Query "Nc1nc(NC2CC2)c2ncn([C@H]3C=C[C@@H](CO)C3)c2n1" next
inactive

Continue with "C[C@@H](CNC1CCCCC1)OC(=O)c1ccccc1"
active

Could you do the same for C[C@@]12C=CC(=O)C=C1CCC1C3CC(O)[C@@](O)(C(=O)CO)[C@]3(C)CC(O)[C@]12F (some centres undefined) , please?
inactive

Further, for COc1ccc(-c2cc(=O)c3c(O)cc(O[C@H]4OC(COC5OC(C)C(O)C(O)[C@H]5O)C(O)C(O)C4O)cc3o2)cc1O (some centres undefined) ?
inactive

Let us now turn to CC(C)=CCC[C@](C)(O)C1CC=C(C)CC1 (some centres undefined)
inactive

Field entry: "C[C@H](C(=O)O)c1cccc(Oc2ccccc2)c1"
inactive

Note, next up: COc1ccc2cc1Oc1ccc(cc1)CC1c3c(cc4c(c3Oc3cc5c(cc3OC)CCN(C)C5C2)OCO4)CCN1C (centres undefined)
active

What do we get for CCOC(=O)C1=CC(OC(CC)CC)C(NC(C)=O)C(N)C1 (centres undefined) ?
inactive
